target: GPR139 (Homo sapiens); test: GPR139 Antagonist titration assay (calcium detection, HEK-GPR139 cells, vs EC80 of S-JNJ-63533054); details: based on logD
Sequence (Q6DWJ6 whole entry): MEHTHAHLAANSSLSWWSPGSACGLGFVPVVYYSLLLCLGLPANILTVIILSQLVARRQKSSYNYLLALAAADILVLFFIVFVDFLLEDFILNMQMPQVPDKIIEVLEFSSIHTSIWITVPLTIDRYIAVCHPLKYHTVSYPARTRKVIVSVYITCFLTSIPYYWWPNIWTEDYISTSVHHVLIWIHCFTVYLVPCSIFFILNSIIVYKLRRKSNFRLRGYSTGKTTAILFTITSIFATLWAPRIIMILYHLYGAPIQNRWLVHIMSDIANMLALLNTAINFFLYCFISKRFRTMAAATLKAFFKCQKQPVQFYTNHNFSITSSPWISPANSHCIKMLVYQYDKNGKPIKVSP
ENDPOINT_LABEL: GPR139 Antagonist Activity Lipophilic Efficiency (logD)

Cc1cc(C(F)(F)F)nc(SCC(=O)Nc2cccc(C(F)(F)F)c2)c1C#N
−233.9E−3

P = CCOC(=O)N1CCC(NC(=O)c2cnn3c(O)c(Cc4cccc(C)c4)c(C)nc23)CC1
Q = O=C(CSc1nc(-c2ccccc2)cn1-c1ccc(F)cc1)Nc1ccccc1
Request: For the pair P and Q , which entry has the numerically smaller recorded GPR139 Antagonist Activity Lipophilic Efficiency (logD)? # answer = label of selected item
Result: Q
